Each entry below carries its reported % Inhibition.
Tested on: P. falciparum stage V gametocytes
Design: BacTiter-Glo ATP luminescence viability of purified stage V gametocytes in 384-well plates, per cent inhibition versus DMSO
CONDITION_DETAILS: 48 h, 5 µM; inhibitor
The campaign covered roughly 13,000 compounds. About 3,200 (25%) showed an effect of 50% or more. The list shows a part of the results.
QUANTITY: % Inhibition (%)

1) Oc1ccc(CCCNc2nc(NCc3cccc4ccccc34)nc(N3CCNCC3)n2)cc1    8.629
2) CN1CCN(CCCSc2ccc3c(c2)ncn3-c2cc(OCc3ccccc3C(F)(F)F)c(C(N)=O)s2)CC1    12.22
3) CC(C)CN1CCC(COc2ccc3ncn(-c4cc(O[C@H](C)c5ccccc5C(F)(F)F)c(C(N)=O)s4)c3c2)CC1    86.18
4) NC(=O)c1sc(-n2cnc3ccc(OCC4CCNCC4)cc32)cc1OCc1ccccc1C(F)(F)F    107
5) Oc1ccc(CCCNc2nc(NCc3cccc4ccccc34)nc(N3CCCNCC3)n2)cc1    -39.91
6) Oc1ccc(CCNc2nc(NCc3ccccc3-c3ccc(C(F)(F)F)cc3)nc(NC3CCNCC3)n2)cc1    26.8

* * *

Each entry below carries its reported % Inhibition.
Test system: P. falciparum stage V gametocytes
Set-up: BacTiter-Glo ATP luminescence viability of purified stage V gametocytes in 384-well plates, per cent inhibition versus DMSO
CONDITION_DETAILS: 48 h, 5 µM; inhibitor
Screen size: about 13,000 compounds; about 3,200 (25%) showed an effect of 50% or more. This is one part of the list.
QUANTITY: % Inhibition

1) COc1ccc(CN(C)Cc2ccc(NC(=O)c3cccc4c(=O)c5cccc(C)c5[nH]c34)cc2)cc1OC    2.818%
2) Cc1ccc2c(OCCN3CCC(Cc4cc5c(cc4F)OCC(=O)N5)CC3)cc(F)cc2n1    -8.259%
3) Cc1ccc(CNC(=O)[C@H](CC(C)C)Nc2cc(C)nc(NCc3ccccc3C)n2)cc1    -39.78%
4) COc1ccc(CCN(C)CCOc2ccc(NC(=O)c3cccc4c(=O)c5cc(SC)ccc5[nH]c34)cc2)cc1OC    53.19%

* * *

System: P. falciparum stage V gametocytes
Set-up: BacTiter-Glo ATP luminescence viability of purified stage V gametocytes in 384-well plates, per cent inhibition versus DMSO
CONDITION_DETAILS: 48 h, 5 µM; inhibitor
The campaign covered roughly 13,000 compounds. About 3,200 (25%) showed an effect of 50% or more. The list shows a part of the results.
QUANTITY: % Inhibition (%)

1) c1cc(CN2CCN(c3ccncc3)CC2)cc(-c2cccc(-c3nc4ccccc4[nH]3)c2)c1    40.29
2) COc1ccc(CNCc2ccc(F)cc2)cc1-c1ccc(S(=O)(=O)NCCN2CCCC2)s1    108.7
3) Cc1cccc(OCC2CCN(c3ncc(C(=O)NC4CC4)cc3Cl)CC2)c1    0.6256
4) CC(=O)c1cccc2[nH]c(C(=O)NC3CCC(CCN4CCc5ccc(C#N)cc5C4)CC3)cc12 (centres unmarked)    4.712
5) Cc1ccc(NC(=O)c2cc(Br)cc(N3CCC(N(C)C)CC3)c2)cc1F    -10.77
6) O=C(O)C(F)(F)F.c1cc(-c2ccc(CN3CCN(c4ccncc4)CC3)cc2)cc(-c2nc3ccccc3[nH]2)c1    5.696
7) Cc1nc(N)nc(N)c1-c1ccc(Br)c([N+](=O)[O-])c1    1.652
8) COc1ccc(CNCc2ccccc2)cc1-c1ccc(S(=O)(=O)NCCN2CCCC2)s1    102.1
9) COc1ccc(CNCc2ccsc2)cc1-c1ccc(S(=O)(=O)NCCN2CCCC2)s1    91.71
10) Cc1cc(OCC2CCN(c3ncc(C(=O)NC4CC4)cc3Cl)CC2)ccc1F    14.47
11) CN(C)c1ccc(NC2=NC(C)(C)N=C(N)N2)cc1    7.678

* * *

Tested on: P. falciparum stage V gametocytes
Set-up: BacTiter-Glo ATP luminescence viability of purified stage V gametocytes in 384-well plates, per cent inhibition versus DMSO
CONDITION_DETAILS: 48 h, 5 µM; inhibitor
Screen size: about 13,000 compounds; about 3,200 (25%) showed an effect of 50% or more. This is one part of the list.
Each entry below carries its reported % Inhibition.
QUANTITY: % Inhibition (%)

1. CCN(CC)CCCN(CCCN(CC)CC)c1cc(C)nc(Nc2ccc(Cl)cc2)n1    39.75
2. CN(C)CCCOc1ccc(CN2CC[C@H](NC(=O)c3ccc(Cl)c(Cl)c3)C2)cc1Cl    19.07
3. O=C(NCc1cccc(F)c1)Nc1cccc(-c2cccc(-c3nc4ccc(C(F)(F)F)cc4[nH]3)c2)c1    -20.5
4. COc1cc(NC(=O)NC(CCN2CCC3(CCc4ccccc43)CC2)c2ccc(Cl)c(Cl)c2)cc(OC)c1OC (stereo not drawn)    -19.84
5. CC(C)(C)NCCN(Cc1ccc(-c2ccc(C(F)(F)F)cc2)cc1)C(=O)Cn1c(SCc2ccc(F)cc2)nc(=O)c2c1CCC2    110.1
6. Cc1nc(C)c(CC(=O)Nc2cccc(-c3cccc(-c4nc5ccc(C(F)(F)F)cc5[nH]4)c3)c2)s1    4.513

* * *

System: P. falciparum stage V gametocytes
Set-up: BacTiter-Glo ATP luminescence viability of purified stage V gametocytes in 384-well plates, per cent inhibition versus DMSO
CONDITION_DETAILS: 48 h, 5 µM; inhibitor
Hit rate of the full screen: of about 13,000 compounds, about 3,200 (25%) showed an effect of 50% or more. This is one part of the list.
Threshold rule: % Inhibition greater than or equal to -10% is MET; below that, NOT MET.

1. CCC(CN1C(=O)C(c2ccccc2)(c2ccccc2)N=C1N)c1ccccc1 (centres unmarked)    MET
2. O=C(NCc1ccc(Cl)cc1)c1ccc(C(=O)NCC2CCCN2CC2CCCCC2)cc1 (centres unmarked)    MET
3. CCc1ccccc1NC(=O)CN1CCN(c2ncnc3scc(-c4ccc(F)cc4)c23)CC1    NOT MET
4. CC1CN(Cc2cccc(F)c2)CCN1c1ccc(NC(=O)c2ccc(F)cc2)cc1 (centres unmarked)    MET
5. N#Cc1cc(N(CCCOc2cccc(OC(F)(F)F)c2)Cc2ccccc2C(F)(F)F)ccc1C(F)(F)F    NOT MET

* * *

Tested on: P. falciparum stage V gametocytes
Design: BacTiter-Glo ATP luminescence viability of purified stage V gametocytes in 384-well plates, per cent inhibition versus DMSO
CONDITION_DETAILS: 48 h, 5 µM; inhibitor
Hit rate of the full screen: of about 13,000 compounds, about 3,200 (25%) showed an effect of 50% or more. The list shows a part of the results.
Each entry below carries its reported % Inhibition.
QUANTITY: % Inhibition

1. OC(CNC1CCCCC1)Cn1c2ccccc2c2ccccc21 (stereo not shown) [TCMDC-124168]    90.81%
2. COc1cc([N+](=O)[O-])ccc1NC(=O)c1cc(Cl)ccc1O [TCMDC-124051]    28.26%
3. COc1ccc2nccc(NCC3(O)CCN(CCc4ccc5c(c4)OCCO5)CC3)c2n1 [TCMDC-141461]    34.43%
4. CCN1CCC(N(Cc2ccc(-c3ccc(C(F)(F)F)cc3)cc2)C(=O)Cn2c(CCc3cccc(F)c3F)cc(=O)c3c2CCC3)CC1 [TCMDC-141265]    65.76%

* * *

System: P. falciparum stage V gametocytes
Parameters: BacTiter-Glo ATP luminescence viability of purified stage V gametocytes in 384-well plates, per cent inhibition versus DMSO
CONDITION_DETAILS: 48 h, 5 µM; inhibitor
In all, about 13,000 compounds went through this assay and about 3,200 (25%) showed an effect of 50% or more. Some of the results follow.
Each entry below carries its reported % Inhibition.
QUANTITY: % Inhibition

1. Oc1c(C(Nc2nc3ccccc3s2)c2ccccc2)ccc2cccnc12 (stereo not drawn)    82.54%
2. O=C(Nc1ccc(N2CCCCC2)c(Cl)c1)c1ncn[nH]1    3.564%
3. Cc1cc(C)cc(N2C(N)=NC(N)=NC2(C)C)c1    10.77%
4. CN(C)CCNCc1cccc(-c2cccc(-c3nc4ccccc4[nH]3)c2)c1    40.55%
5. O=C(NC1CCC(CN2CCC(c3c[nH]c4ccccc34)CC2)CC1)[C@H]1Cc2ccccc2CN1 (stereo partly drawn)    105%
6. O=C(NCCN1CCCCC1)c1cc2cc(-c3ccccc3)ccc2n1S(=O)(=O)c1ccccc1    37.88%
7. CNCCNCc1cccc(-c2ccc(-c3nc4ccccc4[nH]3)cc2)c1    24.41%
8. O=c1cc(NCCCNC2CCOc3c(I)cc(Cl)cc32)[nH]c2ccccc12 (stereo not drawn)    -10.52%
9. COc1ccc2nccc([C@@H](O)CN3CCC(NCc4ccc5nnsc5c4)CC3)c2c1    19.95%
10. CN1CCC(OC(=O)c2cc3cc(-c4ccccc4)ccc3n2S(=O)(=O)c2ccccc2)CC1    88.58%
11. c1cc(CNCCN2CCNCC2)cc(-c2ccc(-c3nc4ccccc4[nH]3)cc2)c1    85.05%
12. CN(CCO)Cc1ccc(-c2ccc(NS(=O)(=O)c3cccc4cccnc34)cc2)cc1    -2.439%
13. Cc1cc(OCCCn2ccnc2)ccc1-c1csc(NC(N)=NCc2ccccc2)n1    31.69%
14. CC1(C)N=C(N)N=C(N)N1OCCc1ccccc1    -4.135%
15. CC1(C)N=C(N)N=C(N)N1OCCCc1ccc(Cl)cc1Cl    4.93%
16. OC1CCC(Nc2ccc3ncc(-c4ccc(Cl)cc4)n3n2)CC1 (stereo not drawn)    13.04%
17. COc1ccc2nccc([C@@H](O)CN3CCC(NC(=O)C(=Cc4ccc(C#N)cc4)c4ccc(-c5ccccc5)cc4)CC3)c2c1    -10.17%
18. COc1ccc(-c2cccc(NC(=O)c3ccccc3)c2)cc1CN1CCCN(C)CC1    80.03%

Origin of values: paper PMC4552634
